We begin with a simple list: items and their reported GI50.
system: HOP-92; test: NCI tumour cell line growth inhibition, 48 h
Activity calls are given as the source filed them. Cut-off read from the data, not from the text of the source: active = GI50 up to about 1.1 µM and inactive = higher.

Solved entries:
CC1=C2C(c3ccccc3)(c3ccccc3)C3C=CC2(C=N3)N(C(=O)NC2CCCCC2)C1=O (stereo not given); 13.4 µM (inactive)
Cc1ccc(NC(=O)C2C3C=CC(O3)C2C(=O)O)cc1 (stereo not given); > 100 µM (inactive)
CC(=O)OCc1cncn1S(=O)(=O)c1ccc(C)cc1; > 100 µM (inactive)
CC1(C)O[C@H]2[C@H](O)C[C@](O)(CO)C[C@H]2O1; > 100 µM (inactive)

We next turn to a different molecule, shown below.
Exam item: # GI50 lookup, item "Cc1c(C)c(C)c(CC2(C)CSC2)c(CC2(C)CSC2)c1C"
Marked response: > 100 µM (inactive)
